B1: ZNF649 (parent)
chain: LTEHKRIHTGKKPHVCSLCGKAFY

Variants of: B1
METHOD NOTES: protein stability index of a GFP-peptide fusion (GPS, HEK-293T) (PSI 1-6); higher = more stable;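 further: lentivirally expressed fusions sorted by FACS into six bins by GFP to DsRed ratio, PSI derived from sequencing read proportions per bin multiplied by bin number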
ASSAY SETUP: c terminus: a fixed tail appended
Catalogue of variants with associated protein stability index
EXPERIMENTAL ENDPOINT: protein stability index

> print(dat)
    change    experimental.endpoint  measured.number
 1     T2E  protein stability index             3.01
 2     R6T  protein stability index             3.08
 3    C16A  protein stability index             2.94
 4    L18R  protein stability index                3
 5    C19E  protein stability index             3.09
 6     T9H  protein stability index             3.04
 7     T2G  protein stability index             2.25
 8     T9D  protein stability index              3.3
 9     H8Q  protein stability index              3.1
10    C19F  protein stability index             1.81
11    C16S  protein stability index             3.52
12     H4E  protein stability index             3.02
13    G10W  protein stability index             2.97
14    H14T  protein stability index             2.17
15    G20V  protein stability index             1.94
16     I7L  protein stability index             3.11
17     T2R  protein stability index             2.78
18    C19T  protein stability index             2.24
19    G20W  protein stability index             2.59
20    F23D  protein stability index             3.98
21    A22T  protein stability index             3.41
22     K5F  protein stability index             2.25
23    V15K  protein stability index              2.9
24    Y24D  protein stability index             3.12
25    L18N  protein stability index             5.08
26    G20K  protein stability index             1.24
27     I7V  protein stability index             2.58
28     H4D  protein stability index              2.9
29     R6F  protein stability index             2.33
30     L1F  protein stability index             2.18
31    A22D  protein stability index             2.51
32    K12R  protein stability index             2.61
